Target: GalNAc(b1-3)Gal(a1-6)Gal(b1-4)Glc
Assay: glycan array binding signal (z-score within array); higher = stronger binding
Settings: glycan notation: IUPAC condensed, linker removed
The full list was thinned out, with the strongest signals kept by preference.
Think of 0.1 as a floor: if glycan array binding signal (z-score) stands on it or above, it is yes (1); beneath it, no (0).

Gal 2 (Canis lupus) (protein) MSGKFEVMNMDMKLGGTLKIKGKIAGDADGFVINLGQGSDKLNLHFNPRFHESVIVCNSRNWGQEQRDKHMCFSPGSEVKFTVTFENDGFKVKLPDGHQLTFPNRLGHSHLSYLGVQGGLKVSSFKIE    yes (1)
Intelectin 1 (Homo sapiens), Q8WWA0 (protein) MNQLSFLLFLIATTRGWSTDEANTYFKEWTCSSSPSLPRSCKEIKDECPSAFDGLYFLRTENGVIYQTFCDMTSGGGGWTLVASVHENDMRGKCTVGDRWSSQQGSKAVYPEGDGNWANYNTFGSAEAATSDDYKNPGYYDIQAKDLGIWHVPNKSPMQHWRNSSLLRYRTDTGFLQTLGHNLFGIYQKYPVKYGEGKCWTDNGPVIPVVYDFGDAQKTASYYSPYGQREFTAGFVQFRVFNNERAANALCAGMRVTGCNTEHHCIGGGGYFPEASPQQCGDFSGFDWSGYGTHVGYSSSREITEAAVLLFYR    no (0)
AT5G24760(45) (Arabidopsis thaliana), Q8LEB2 (protein) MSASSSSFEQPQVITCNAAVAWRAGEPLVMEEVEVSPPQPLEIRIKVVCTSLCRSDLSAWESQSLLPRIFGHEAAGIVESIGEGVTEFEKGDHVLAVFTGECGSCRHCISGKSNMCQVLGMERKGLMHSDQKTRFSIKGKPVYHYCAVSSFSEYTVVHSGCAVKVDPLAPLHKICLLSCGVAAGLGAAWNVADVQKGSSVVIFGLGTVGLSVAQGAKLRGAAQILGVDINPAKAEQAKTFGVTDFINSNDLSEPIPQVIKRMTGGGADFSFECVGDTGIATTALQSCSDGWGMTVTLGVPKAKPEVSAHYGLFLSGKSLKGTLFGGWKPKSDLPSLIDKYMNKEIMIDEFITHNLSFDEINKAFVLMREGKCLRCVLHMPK    no (0)
CSA (Cytisus scoparius), P29257 (protein) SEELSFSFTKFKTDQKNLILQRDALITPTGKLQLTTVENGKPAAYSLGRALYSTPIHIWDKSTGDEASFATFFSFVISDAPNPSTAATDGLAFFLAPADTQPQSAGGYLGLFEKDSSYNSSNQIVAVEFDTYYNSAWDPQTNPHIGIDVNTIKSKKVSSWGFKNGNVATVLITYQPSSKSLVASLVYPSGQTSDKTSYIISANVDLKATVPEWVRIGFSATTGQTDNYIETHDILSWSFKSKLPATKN    yes (1)
FGFR2-Fc (protein) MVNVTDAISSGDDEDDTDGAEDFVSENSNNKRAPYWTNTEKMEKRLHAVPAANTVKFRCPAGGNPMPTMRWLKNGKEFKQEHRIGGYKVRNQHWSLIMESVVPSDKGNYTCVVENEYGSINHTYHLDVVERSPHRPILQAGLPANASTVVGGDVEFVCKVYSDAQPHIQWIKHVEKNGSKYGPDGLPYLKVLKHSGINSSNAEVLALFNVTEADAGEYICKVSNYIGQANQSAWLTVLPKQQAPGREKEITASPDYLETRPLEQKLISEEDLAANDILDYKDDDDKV    no (0)

All figures here come from the supplement of paper PMC8728848.
